# Test details: 384-well plate pilot, post-Golgi transport modulator project, inhibition of yeast transport mutant growth (AID 636)
# Experimental conditions: absorbance 615 nm, about 18 h, active compounds read high
The source made the active and inactive calls. Rule as the data show it: active = inhibition above about 31%; inactive = the rest.
Below, each of the compounds is paired with its reported inhibition value.
Property measured: inhibition

INSERT INTO measurements (compound, reading) VALUES
  ('Cc1cc(C)n2cc(CSc3nnnn3C)nc2n1', '0.51% (inactive)'),
  ('CNC(=O)CN(C#N)c1nc(N(C)C)nc(N(C)C)n1', '-4.93% (inactive)'),
  ('CCCN(CCC)C(=O)C1CCN(c2cc(C)nc3c(-c4ccc(OC)c(OC)c4)c(C)nn23)CC1', '-0.13% (inactive)'),
  ('CCS(=O)(=O)N1CCCC(C(=O)NCc2cccc(OC)c2)C1 (stereo unspecified)', '-5.2% (inactive)'),
  ('Cn1nc(C(=O)NC2CCCCCC2)ccc1=O', '-2.6% (inactive)'),
  ('COC(=O)Cc1c(C)nc2nc(-c3ccco3)[nH]n2c1=O', '-2.76% (inactive)'),
  ('Cc1ccc(NC(=O)Nc2ccc3c(c2)N(C)C(=O)CS3)nc1', '-3.73% (inactive)'),
  ('O=C(CCn1c(=O)sc2ccccc21)NC1=NCCS1', '-1.87% (inactive)'),
  ('CCN(CC)S(=O)(=O)c1ccc(S(=O)(=O)N(Cc2ccccn2)Cc2ccco2)cc1', '-2.03% (inactive)'),
  ('Cc1ccccc1C(=O)NC1CCN(CC(=O)Nc2nccs2)CC1', '-0.67% (inactive)'),
  ('COC(=O)c1cc(Br)c(=O)n(CCN2CCOCC2)c1', '-4.27% (inactive)');
